# Assayed System: HLA-B*5401 (human)
# Protocol Notes: competition with 125I-labelled probe peptide for purified HLA, gel filtration
# Condition Label: remark: other sources report otherwise
Would you mind telling me the reported pIC50 of each entry?
Scale: negative log10 of molar concentration, which is what pIC50 denotes.

input: Tell us which pIC50 value is on record for TPARVTGGVFL (modifications not checked) [Peptide 26.0568 (HBV pol 354, …)]
output: 4.70

input: Specify pIC50 for LPIHTAELLA (modifications not checked) [HBV POL 723 peptide 16.0181 (…)] and stop.
output: 7.52

input: Consider the binder FPDHQLDPA (modifications not checked) [HBV ENV 25 peptide 16.0006 (…)] and give its recorded pIC50.
output: 7.92

input: Quick one: give measured pIC50 for VPSALNPA (modifications not checked) [HBV POL 769 peptide 19.0016 (VPSALNPA)]
output: 8.00
